These data points were gathered from the supplement of paper PMC10567573.

Listing: protein stability index of selected sequences
# ASSAY_NAME: protein stability index of a GFP-peptide fusion (GPS, HEK-293T) (PSI 1-6); higher = more stable;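 also: 24-mer peptide tiles fused after GFP, lentivirally expressed, FACS-sorted into six equal bins by GFP/DsRed ratio, decoded by Illumina sequencing, PSI is the read-weighted mean bin number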
# TEST_CONDITIONS: treatment: MLN4924 1 uM, 8 h; c terminus: a fixed tail appended
Answer with a bare number; do not write a unit.

Solved entries:
RESIDUE_SEQUENCE: RRVRLELWDTSGQGRFCTIFRSYS [RAB40C]
protein stability index: 1.99

RESIDUE_SEQUENCE: VFVGNQLIPQPLDSEEDEKMEEDI [PCMTD1]
protein stability index: 5.07

RESIDUE_SEQUENCE: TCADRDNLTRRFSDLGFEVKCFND [CASP6]
protein stability index: 3.24

RESIDUE_SEQUENCE: SCRRKQEDDRDGLLAEREQEEAIA [TMEM106C]
protein stability index: 5.42

Could you now consider this next sequence?
Annotate the sequence EGNLAETENRYCVQLSQIQGLIGS [KRT17] with its measured protein stability index.
3.94

----------
# ASSAY_NAME: protein stability index of a GFP-peptide fusion (GPS, HEK-293T) (PSI 1-6); higher = more stable
# TEST_CONDITIONS: treatment: DMSO; c terminus: a fixed tail appended
Lab note: anything with protein stability index at or over 3 counts as True; the rest go in False.

Completed entries (count: 5):
RESIDUE_SEQUENCE: PPPDVTQLTPPSHDLTDNIFPRLV [ANKRD17]
CLASSIFICATION: True

RESIDUE_SEQUENCE: LPRSEDDDCDDDDDDAQILPSPVQ [DRICH1]
CLASSIFICATION: True

RESIDUE_SEQUENCE: LESRFQSKSGYLRYSCESRIRSYL [DFFB]
CLASSIFICATION: False

RESIDUE_SEQUENCE: REIARYLLEQGAQVNRRSAKGNTA [FEM1A]
CLASSIFICATION: True

RESIDUE_SEQUENCE: IEQFSESHAIHVEEQSDQSFSSLE [IQUB]
CLASSIFICATION: True

Does LGWAQPCDVWSIGCILFEYYRGFT [CLK3] have a reported protein stability index of at least 3?
True

Does STTEWNDETLYQEFNGLKKMNPKL [CHIT1] have a reported protein stability index of at least 3?
True

Does LINKMLTINPSKRITAAEALKHPW [CAMK2A] have a reported protein stability index of at least 3?
False

Does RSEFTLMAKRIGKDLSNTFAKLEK [STX5] have a reported protein stability index of at least 3?
False

Does KIENGYPLHAPEAYFPYFKKHNVT [CDC14A] have a reported protein stability index of at least 3?
False

----------
# ASSAY_NAME: protein stability index of a GFP-peptide fusion (GPS, HEK-293T) (PSI 1-6); higher = more stable
# TEST_CONDITIONS: treatment: MLN4924 1 uM, 8 h; c terminus: a fixed tail appended
Lab note: anything with protein stability index at or over 3 counts as rule met; the rest go in rule not met.

RESIDUE_SEQUENCE: RAALISRRHLQFWKSHLKKVQKPL [RHOBTB1]
CLASSIFICATION: rule not met
--
RESIDUE_SEQUENCE: PRYITDVIDAEPFIRCSLQCRDLV [KLHL12]
CLASSIFICATION: rule not met
--
RESIDUE_SEQUENCE: CRKCIASSGCFMEYLENQVIKDKD [RNF180]
CLASSIFICATION: rule not met
--
RESIDUE_SEQUENCE: TRRTLKGHGNKVLCMDWCKDKRRI [GNB5]
CLASSIFICATION: rule met
--
RESIDUE_SEQUENCE: PSATRAKPGPQDTVERPFYDLWAS [NOP53]
CLASSIFICATION: rule met

Would you kindly look at the next entry?
Does ATYIFIFIGETLLSMNWAIVADIL [SPNS1] have a reported protein stability index of at least 3?
rule not met

----------
# ASSAY_NAME: protein stability index of a GFP-peptide fusion (GPS, HEK-293T) (PSI 1-6); higher = more stable
# TEST_CONDITIONS: treatment: MLN4924 1 uM, 8 h; c terminus: a fixed tail appended
QUANTITY_NAME: protein stability index
Answer with a bare number; do not write a unit.

Solved entries:
RESIDUE_SEQUENCE: AFSNRSKQLRRQMWWRGCKIKAIM [VAMP4]
QUANTITY_NAME: protein stability index
OBSERVED: 2.44
--
RESIDUE_SEQUENCE: LPQVAEEISGPLTSANKITLVSSG [FLOT1]
QUANTITY_NAME: protein stability index
OBSERVED: 4.23
--
RESIDUE_SEQUENCE: LYGQRNSAPEQELLVQDATPVSNS [GFOD1]
QUANTITY_NAME: protein stability index
OBSERVED: 4.76
--
RESIDUE_SEQUENCE: TRYSVAGLSPYSDYEFRVVAVNNI [PTPRD]
QUANTITY_NAME: protein stability index
OBSERVED: 2.61

Could you now consider this next sequence?
Annotate the sequence PQSPDFLDITNPKAVLENALRNFA [UFD1] with its measured protein stability index.
2.55

----------
# ASSAY_NAME: protein stability index of a GFP-peptide fusion (GPS, HEK-293T) (PSI 1-6); higher = more stable
# TEST_CONDITIONS: treatment: MLN4924 1 uM, 8 h; c terminus: a fixed tail appended
QUANTITY_NAME: protein stability index
Answer with a bare number; do not write a unit.

Solved entries:
RESIDUE_SEQUENCE: FASGFKRAFKIKDFANTIPGHGGI [CDS1]
protein stability index: 2.47
--
RESIDUE_SEQUENCE: RQVKHYRIFRLPNNWYYISPRLTF [SLA]
protein stability index: 2.14
--
RESIDUE_SEQUENCE: EPSNKTIHAELSKLVKKHAAQRST [FKBP8]
protein stability index: 4.47

Annotate the sequence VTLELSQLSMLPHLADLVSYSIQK [VDR] with its measured protein stability index.
2.91

Annotate the sequence GSSDSEEERATRLAELQEQLKAVH [BRD3] with its measured protein stability index.
5.15

----------
# ASSAY_NAME: protein stability index of a GFP-peptide fusion (GPS, HEK-293T) (PSI 1-6); higher = more stable
# TEST_CONDITIONS: treatment: MLN4924 1 uM, 8 h; c terminus: a fixed tail appended
Lab note: anything with protein stability index at or over 5 counts as met; the rest go in not met.

Completed entries (count: 3):
RESIDUE_SEQUENCE: MGRKKKKQLKPWCWYCNRDFDDEK [ZNF207]
CLASSIFICATION: not met

RESIDUE_SEQUENCE: HELVWAKMKGFGFWPAKVMQKEDN [ZMYND11]
CLASSIFICATION: not met

RESIDUE_SEQUENCE: KERLLLSAAVPAGQTYVDAGYEVD [CHIT1]
CLASSIFICATION: not met

Does MAKKHKKIRLRCQKGIPPSLRGRA [TBC1D10A] have a reported protein stability index of at least 5?
not met

Does KEQNNLKQLEFGLKEAPVQDQGYK [ZNF8] have a reported protein stability index of at least 5?
met

Does RDCLVLNQGYLSEAGASLVDQKLE [PI4K2A] have a reported protein stability index of at least 5?
not met

Does ENLDEAREQKEKSPPDQPAVPHPP [ADD1] have a reported protein stability index of at least 5?
met

Does VESSLNVKTKKNAPSATIHQGEEE [FBXO34] have a reported protein stability index of at least 5?
met

Does YTDYVATRWYRAPELLVGDTQYGS [CDKL4] have a reported protein stability index of at least 5?
not met

Does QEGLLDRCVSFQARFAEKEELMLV [HDAC6] have a reported protein stability index of at least 5?
not met

Does RMDFAAKLMKNIRFPLMTPQELIN [KLHL13] have a reported protein stability index of at least 5?
not met

Does PQPNYADTLISQESCEKNDPLSLL [PCDHGA10] have a reported protein stability index of at least 5?
not met

Does GRGLLRWDSFSAWLHCVCVVGFDL [DENND6A] have a reported protein stability index of at least 5?
not met

Does GNPEPVSYYIIQHKPKNSEELYKE [PTPRD] have a reported protein stability index of at least 5?
not met

Does WTPLHLACYFGHRQVVQDLLKAGA [OSBPL1A] have a reported protein stability index of at least 5?
not met

Does SYGPVILVVLVVAVVASSVNSYYS [TOR1AIP2] have a reported protein stability index of at least 5?
not met

Does NKCSVYPLTFDKNENMAAKKKSVA [GNB5] have a reported protein stability index of at least 5?
not met

----------
Listing: protein stability index of selected sequences
# ASSAY_NAME: protein stability index of a GFP-peptide fusion (GPS, HEK-293T) (PSI 1-6); higher = more stable
# TEST_CONDITIONS: treatment: DMSO; c terminus: a fixed tail appended
Answer with a bare number; do not write a unit.

Solved entries:
RESIDUE_SEQUENCE: GPADCSPPHPAPAPQHPAASALRT [DYRK1B]
OBSERVED: 4.81
--
RESIDUE_SEQUENCE: LSTSSSPSGTPTNLRRHVPDLESG [DLC1]
OBSERVED: 4.65
--
RESIDUE_SEQUENCE: HQSLSLASSPKGTIENILDNDPRD [CDC25A]
OBSERVED: 5.3

Annotate the sequence RIQTQKEQAKENENGELQKIILPR [ZC2HC1C] with its measured protein stability index.
4.77

Annotate the sequence SCRRKQEDDRDGLLAEREQEEAIA [TMEM106C] with its measured protein stability index.
5.45

Annotate the sequence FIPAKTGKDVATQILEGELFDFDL [RSPH3] with its measured protein stability index.
2.7

Annotate the sequence TASKAIIEKEYQPHVIVSTTGPNP [ADD1] with its measured protein stability index.
4.47
